# assay-remarks: Oral bioavailability in Sprague-Dawley rat at 10 mg/kg measured upto 24 hrs by LC-MS/MS analysis
# Format: ADME, organism-based
# setup-conditions: in vivo
property: bioavailability (%)
Could you give me the number in %? Just the number is fine.

*Q* What bioavailability value was documented for this compound, C[C@H]1CC[C@@H](c2nc3cccc(Cl)c3c(=O)n2-c2cccnc2)N1c1nc(N)nc(N)c1C#N ?
*A* 57

###

# target-or-test-system: Phosphatidylinositol 4,5-bisphosphate 3-kinase catalytic subunit beta isoform (Homo sapiens, UniProt P42338)
# Sequence (P42338 whole entry, looked up, canonical isoform): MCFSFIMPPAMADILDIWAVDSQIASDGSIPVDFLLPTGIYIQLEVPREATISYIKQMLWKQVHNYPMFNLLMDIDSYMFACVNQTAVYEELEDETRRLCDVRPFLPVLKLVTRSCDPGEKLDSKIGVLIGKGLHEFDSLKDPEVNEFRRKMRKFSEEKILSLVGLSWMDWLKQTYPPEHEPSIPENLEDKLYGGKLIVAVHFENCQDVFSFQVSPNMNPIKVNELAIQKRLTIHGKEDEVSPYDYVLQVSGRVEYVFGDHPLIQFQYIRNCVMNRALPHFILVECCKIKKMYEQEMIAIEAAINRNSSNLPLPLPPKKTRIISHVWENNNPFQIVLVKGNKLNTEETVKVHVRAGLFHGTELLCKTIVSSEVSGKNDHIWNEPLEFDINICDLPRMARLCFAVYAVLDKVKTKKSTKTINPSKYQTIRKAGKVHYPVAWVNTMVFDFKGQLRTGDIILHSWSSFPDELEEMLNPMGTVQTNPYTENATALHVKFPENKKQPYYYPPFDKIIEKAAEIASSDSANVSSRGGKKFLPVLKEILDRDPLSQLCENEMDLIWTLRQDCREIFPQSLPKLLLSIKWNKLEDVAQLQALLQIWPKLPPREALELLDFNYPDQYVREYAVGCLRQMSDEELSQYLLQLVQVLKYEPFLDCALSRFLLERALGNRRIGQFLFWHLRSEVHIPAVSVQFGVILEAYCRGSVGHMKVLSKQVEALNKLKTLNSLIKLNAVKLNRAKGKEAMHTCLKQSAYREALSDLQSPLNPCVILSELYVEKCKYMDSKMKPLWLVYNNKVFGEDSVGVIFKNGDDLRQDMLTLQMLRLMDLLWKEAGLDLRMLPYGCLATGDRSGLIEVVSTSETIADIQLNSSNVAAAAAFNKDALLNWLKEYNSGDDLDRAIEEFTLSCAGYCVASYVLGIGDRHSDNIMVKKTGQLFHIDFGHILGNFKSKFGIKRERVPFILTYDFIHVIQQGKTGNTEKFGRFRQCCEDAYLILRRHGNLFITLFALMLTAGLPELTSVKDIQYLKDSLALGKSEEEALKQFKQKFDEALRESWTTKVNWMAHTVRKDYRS
# assay-remarks: Inhibition of N-terminal His6-tagged recombinant full length human PI3Kbeta expressed in baculovirus infected Sf21 insect cells at 1 uM by HTRF assay relative to control
property: inhibition (%)
Could you give me the number in %? Just the number is fine.

*Q* What inhibition value was documented for this compound, C[C@H]1CC[C@@H](c2nc3cccc(Cl)c3c(=O)n2-c2cccnc2)N1c1nc(N)nc2[nH]cnc12 ?
*A* 54

*Q* Same for C[C@H]1CC[C@@H](c2nc3cccc(Cl)c3c(=O)n2-c2ccccc2)N1c1nc(N)nc(N)c1C#N
*A* 45

*Q* Same for C[C@H]1CC[C@@H](c2nc3ccc(Cl)cc3c(=O)n2-c2cccnc2)N1c1nc(N)nc(N)c1C#N
*A* 100

*Q* Same for COc1cccc(C#Cc2cccc3nc([C@@H]4CC[C@H](C)N4c4nc(N)nc(N)c4C#N)n(-c4ccccc4)c(=O)c23)c1
*A* 42

*Q* Same for C[C@H]1CC[C@@H](c2nc3cccc(F)c3c(=O)n2-c2cccnc2)N1c1nc(N)nc(N)c1C#N
*A* 36

*Q* Same for C[C@H]1CC[C@@H](c2nc3cccc(Cl)c3c(=O)n2-c2cc(F)cc(F)c2)N1c1nc(N)nc2[nH]cnc12
*A* 68

*Q* Same for Cc1ccccc1C#Cc1cccc2nc([C@@H]3CC[C@H](C)N3c3nc(N)nc(N)c3C#N)n(-c3ccccc3)c(=O)c12
*A* 78
